Answer each item with its documented protein stability index.
B1: STK38L (parent)
chain: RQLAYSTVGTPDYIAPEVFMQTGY

- Variants of: B1
- METHOD_DESCRIPTION: protein stability index of a GFP-peptide fusion (GPS, HEK-293T) (PSI 1-6); higher = more stable;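 also: lentivirally expressed fusions sorted by FACS into six bins by GFP to DsRed ratio, PSI derived from sequencing read proportions per bin multiplied by bin number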
- CONDITION_SET: c terminus: a fixed tail appended
Returns: the value as a bare number; no unit string appended.

Q: Give the measured protein stability index for F19H
Ans: 2.76

Q: Give the measured protein stability index for A15I
Ans: 1.43

Q: Give the measured protein stability index for P16S
Ans: 2.16

Q: Give the measured protein stability index for T22S
Ans: 2.77

Q: Give the measured protein stability index for Y5R
Ans: 2.81

Q: Give the measured protein stability index for V8F
Ans: 2.18

Q: Give the measured protein stability index for T10R
Ans: 2.86

Q: Give the measured protein stability index for D12F
Ans: 1.98

Q: Give the measured protein stability index for Y13N
Ans: 3.57

Q: Give the measured protein stability index for Y13P
Ans: 2.75

Q: Give the measured protein stability index for I14Y
Ans: 2.28

Q: Give the measured protein stability index for Y24R
Ans: 3.06

Q: Give the measured protein stability index for S6L
Ans: 2.08

Q: Give the measured protein stability index for V8L
Ans: 2.37

Q: Give the measured protein stability index for V8P
Ans: 2.51

Q: Give the measured protein stability index for G9Y
Ans: 2.9

Q: Give the measured protein stability index for Y13Q
Ans: 3.01

Q: Give the measured protein stability index for L3C
Ans: 2.06

Q: Give the measured protein stability index for A15T
Ans: 2.4

Q: Give the measured protein stability index for G23I
Ans: 1.99
